Readings of relative viability for the listed molecules
system: COR-L23; assay: relative viability (nuclei count vs DMSO), 5 days (fraction); higher = more cells survive; conditions: first compound 0.01 µM
value-type: relative viability

| molecule | meas-value |
| --- | --- |
| NC(=O)Nc1cc(-c2cccc(F)c2)sc1C(=O)N[C@H]1CCCNC1 [AZD7762] + COc1cccc2cc(-c3nc([C@H]4CC[C@H](C(=O)O)CC4)n4ncnc(N)c34)[nH]c12 [OSI-027] (partner 0.5 µM) | 0.866 |
| NC(=O)Nc1cc(-c2cccc(F)c2)sc1C(=O)N[C@H]1CCCNC1 [AZD7762] + Cc1nc(NC(=O)N2CCC[C@H]2C(N)=O)sc1-c1ccnc(C(C)(C)C(F)(F)F)c1 [Alpelisib] (partner 2 µM) | 0.938 |
| NC(=O)Nc1cc(-c2cccc(F)c2)sc1C(=O)N[C@H]1CCCNC1 [AZD7762] + C[C@@H](Oc1cc(-c2cnn(C3CCNCC3)c2)cnc1N)c1c(Cl)ccc(F)c1Cl [Crizotinib] (partner 1 µM) | 0.775 |
| NC(=O)Nc1cc(-c2cccc(F)c2)sc1C(=O)N[C@H]1CCCNC1 [AZD7762] + O=C(CCCCCCC(=O)Nc1ccccc1)NO [Vorinostat] (partner 1 µM) | 0.562 |

* * *

tested on: NCI-H596; test: relative viability (nuclei count vs DMSO), 5 days (fraction); higher = more cells survive; conditions: first compound 0.8 µM

| molecule | system-name | relative viability |
| --- | --- | --- |
| Oc1nc(-c2ccc(C(F)(F)F)cc2)nc2c1CSCC2 [XAV939] + CC(=O)Nc1cccc(-n2c(=O)n(C3CC3)c(=O)c3c(Nc4ccc(I)cc4F)n(C)c(=O)c(C)c32)c1 [Trametinib] (partner 0.02 µM) | NCI-H596 | 0.75 |
| Oc1nc(-c2ccc(C(F)(F)F)cc2)nc2c1CSCC2 [XAV939] + COc1cccc2cc(-c3nc([C@H]4CC[C@H](C(=O)O)CC4)n4ncnc(N)c34)[nH]c12 [OSI-027] (partner 0.5 µM) | NCI-H596 | 0.768 |
| C=C1C(=O)O[C@@H](CCCCCCCC)[C@@H]1C(=O)O [C-75] + Cc1cc(Nc2cc(N3CCN(C)CC3)nc(Sc3ccc(NC(=O)C4CC4)cc3)n2)n[nH]1 [Tozasertib] (partner 0.1 µM) | NCI-H596 | 0.728 |
| Oc1nc(-c2ccc(C(F)(F)F)cc2)nc2c1CSCC2 [XAV939] + C[C@]1(O)C[C@@H](c2nc(-c3ccc4ccc(-c5ccccc5)nc4c3)c3c(N)nccn32)C1 [Linsitinib] (partner 1 µM) | NCI-H596 | 1.03 |
| C=C1C(=O)O[C@@H](CCCCCCCC)[C@@H]1C(=O)O [C-75] + NC(=O)Nc1cc(-c2cccc(F)c2)sc1C(=O)N[C@H]1CCCNC1 [AZD7762] (partner 0.2 µM) | NCI-H596 | 0.998 |
| C=C1C(=O)O[C@@H](CCCCCCCC)[C@@H]1C(=O)O [C-75] + COc1cccc2cc(-c3nc([C@H]4CC[C@H](C(=O)O)CC4)n4ncnc(N)c34)[nH]c12 [OSI-027] (partner 0.5 µM) | NCI-H596 | 0.72 |
| Oc1nc(-c2ccc(C(F)(F)F)cc2)nc2c1CSCC2 [XAV939] + O=C(c1cc(Cc2n[nH]c(=O)c3ccccc23)ccc1F)N1CCN(C(=O)C2CC2)CC1 [Olaparib] (partner 8 µM) | NCI-H596 | 0.776 |
| Oc1nc(-c2ccc(C(F)(F)F)cc2)nc2c1CSCC2 [XAV939] + CCNC(=O)c1noc(-c2cc(C(C)C)c(O)cc2O)c1-c1ccc(CN2CCOCC2)cc1 [Luminespib] (partner 0.01 µM) | NCI-H596 | 1.13 |

* * *

Readings of relative viability for the listed molecules
tested on: NCI-H2405; assay: relative viability (nuclei count vs DMSO), 5 days (fraction); higher = more cells survive; details: first compound 0.5 µM

| molecule | relative viability |
| --- | --- |
| CC1(C)CCC(c2ccc(Cl)cc2)=C(CN2CCN(c3ccc(C(=O)NS(=O)(=O)c4ccc(N[C@H](CCN5CCOCC5)CSc5ccccc5)c(S(=O)(=O)C(F)(F)F)c4)cc3)CC2)C1 [Navitoclax] + O=C(CCCCCCC(=O)Nc1ccccc1)NO [Vorinostat] (partner 1 µM) | 0.811 |
| CC1(C)CCC(c2ccc(Cl)cc2)=C(CN2CCN(c3ccc(C(=O)NS(=O)(=O)c4ccc(N[C@H](CCN5CCOCC5)CSc5ccccc5)c(S(=O)(=O)C(F)(F)F)c4)cc3)CC2)C1 [Navitoclax] + Cc1nc(NC(=O)N2CCC[C@H]2C(N)=O)sc1-c1ccnc(C(C)(C)C(F)(F)F)c1 [Alpelisib] (partner 2 µM) | 0.834 |
| CC1(C)CCC(c2ccc(Cl)cc2)=C(CN2CCN(c3ccc(C(=O)NS(=O)(=O)c4ccc(N[C@H](CCN5CCOCC5)CSc5ccccc5)c(S(=O)(=O)C(F)(F)F)c4)cc3)CC2)C1 [Navitoclax] + C[C@]1(O)C[C@@H](c2nc(-c3ccc4ccc(-c5ccccc5)nc4c3)c3c(N)nccn32)C1 [Linsitinib] (partner 1 µM) | 0.88 |
| CC1(C)CCC(c2ccc(Cl)cc2)=C(CN2CCN(c3ccc(C(=O)NS(=O)(=O)c4ccc(N[C@H](CCN5CCOCC5)CSc5ccccc5)c(S(=O)(=O)C(F)(F)F)c4)cc3)CC2)C1 [Navitoclax] + CC(=O)Nc1cccc(-n2c(=O)n(C3CC3)c(=O)c3c(Nc4ccc(I)cc4F)n(C)c(=O)c(C)c32)c1 [Trametinib] (partner 0.02 µM) | 0.661 |
| CC1(C)CCC(c2ccc(Cl)cc2)=C(CN2CCN(c3ccc(C(=O)NS(=O)(=O)c4ccc(N[C@H](CCN5CCOCC5)CSc5ccccc5)c(S(=O)(=O)C(F)(F)F)c4)cc3)CC2)C1 [Navitoclax] + NC(=O)Nc1cc(-c2cccc(F)c2)sc1C(=O)N[C@H]1CCCNC1 [AZD7762] (partner 0.2 µM) | 0.653 |
| CC1(C)CCC(c2ccc(Cl)cc2)=C(CN2CCN(c3ccc(C(=O)NS(=O)(=O)c4ccc(N[C@H](CCN5CCOCC5)CSc5ccccc5)c(S(=O)(=O)C(F)(F)F)c4)cc3)CC2)C1 [Navitoclax] + CCNC(=O)c1noc(-c2cc(C(C)C)c(O)cc2O)c1-c1ccc(CN2CCOCC2)cc1 [Luminespib] (partner 0.01 µM) | 0.702 |
| CC1(C)CCC(c2ccc(Cl)cc2)=C(CN2CCN(c3ccc(C(=O)NS(=O)(=O)c4ccc(N[C@H](CCN5CCOCC5)CSc5ccccc5)c(S(=O)(=O)C(F)(F)F)c4)cc3)CC2)C1 [Navitoclax] + Cc1cc(Nc2cc(N3CCN(C)CC3)nc(Sc3ccc(NC(=O)C4CC4)cc3)n2)n[nH]1 [Tozasertib] (partner 0.1 µM) | 0.681 |

* * *

system: NCI-H1355; assay: relative viability (nuclei count vs DMSO), 5 days (fraction); higher = more cells survive; conditions: first compound 0.253 µM
Readings of relative viability for the listed compounds
value-type: relative viability

| compound | value-type | meas-value |
| --- | --- | --- |
| Oc1nc(-c2ccc(C(F)(F)F)cc2)nc2c1CSCC2 [XAV939] + Nc1ncn([C@H]2C[C@H](O)[C@@H](CO)O2)c(=O)n1 [Decitabine] (partner 2 µM) | relative viability | 0.309 |
| C=C1C(=O)O[C@@H](CCCCCCCC)[C@@H]1C(=O)O [C-75] + Cc1nc(NC(=O)N2CCC[C@H]2C(N)=O)sc1-c1ccnc(C(C)(C)C(F)(F)F)c1 [Alpelisib] (partner 2 µM) | relative viability | 0.825 |
| Oc1nc(-c2ccc(C(F)(F)F)cc2)nc2c1CSCC2 [XAV939] + Cc1nc(Nc2ncc(C(=O)Nc3c(C)cccc3Cl)s2)cc(N2CCN(CCO)CC2)n1 [Dasatinib] (partner 0.075 µM) | relative viability | 0.495 |

* * *

system: PC-3 [JPC-3]; assay: relative viability (nuclei count vs DMSO), 5 days (fraction); higher = more cells survive; conditions: first compound 0.01 µM

| compound | system-name | relative viability |
| --- | --- | --- |
| NC(=O)Nc1cc(-c2cccc(F)c2)sc1C(=O)N[C@H]1CCCNC1 [AZD7762] + Nc1nc2[nH]cc(CCc3ccc(C(=O)N[C@@H](CCC(=O)O)C(=O)O)cc3)c2c(=O)[nH]1 [Pemetrexed] (partner 0.2 µM) | PC-3 [JPC-3] | 0.626 |
| NC(=O)Nc1cc(-c2cccc(F)c2)sc1C(=O)N[C@H]1CCCNC1 [AZD7762] + C[C@]1(O)C[C@@H](c2nc(-c3ccc4ccc(-c5ccccc5)nc4c3)c3c(N)nccn32)C1 [Linsitinib] (partner 1 µM) | PC-3 [JPC-3] | 0.929 |
| NC(=O)Nc1cc(-c2cccc(F)c2)sc1C(=O)N[C@H]1CCCNC1 [AZD7762] + CC(=O)c1c(C)c2cnc(Nc3ccc(N4CCNCC4)cn3)nc2n(C2CCCC2)c1=O [Palbociclib] (partner 0.5 µM) | PC-3 [JPC-3] | 0.558 |
| NC(=O)Nc1cc(-c2cccc(F)c2)sc1C(=O)N[C@H]1CCCNC1 [AZD7762] + O=C(CCCCCCC(=O)Nc1ccccc1)NO [Vorinostat] (partner 1 µM) | PC-3 [JPC-3] | 0.644 |
| NC(=O)Nc1cc(-c2cccc(F)c2)sc1C(=O)N[C@H]1CCCNC1 [AZD7762] + CC(C)C[C@H](NC(=O)[C@H](Cc1ccccc1)NC(=O)c1cnccn1)B(O)O [Bortezomib] (partner 0.002 µM) | PC-3 [JPC-3] | 0.886 |
| NC(=O)Nc1cc(-c2cccc(F)c2)sc1C(=O)N[C@H]1CCCNC1 [AZD7762] + Cc1cc(Nc2cc(N3CCN(C)CC3)nc(Sc3ccc(NC(=O)C4CC4)cc3)n2)n[nH]1 [Tozasertib] (partner 0.1 µM) | PC-3 [JPC-3] | 0.859 |
| NC(=O)Nc1cc(-c2cccc(F)c2)sc1C(=O)N[C@H]1CCCNC1 [AZD7762] + Cc1nc(Nc2ncc(C(=O)Nc3c(C)cccc3Cl)s2)cc(N2CCN(CCO)CC2)n1 [Dasatinib] (partner 0.075 µM) | PC-3 [JPC-3] | 1.05 |
